System: U2OS
Assay: Multiplex assay against U2OS
Type: toxicity, cell-based
Conditions: human, 24 h, 1 µM, compound concentration 1 uM, replicate 2
attributeMeasured: Population Normal (%)
Give the number first and the unit second.

Ask: // returns reported Population Normal (%) for input `CCCS(=O)(=O)c1nc(NC2CC2)cc(-c2ccc3c(ccn3C3CC(C)(C)NC(C)(C)C3)c2)n1`
Result: 94%

Ask: Next compound up: `CCn1cc(-c2ccnc3[nH]c(-c4cccc(CN(C)C)c4)cc23)c(-c2ccc(NC(=O)N(C)C)cc2)n1`
Result: 81%

Ask: Now the compound `CN[C@@H]1C[C@H]2O[C@@](C)([C@@H]1OC)n1c3ccccc3c3c4c(c5c6ccccc6n2c5c31)C(=O)NC4`
Result: 86%

Ask: Proceed to `CNc1cc(Oc2cc(C(=O)Nc3cc(N4CCN(C)CC4)cc(C(F)(F)F)c3)ccc2C)ncn1`
Result: 93%

Ask: Try `COc1ccc(S(=O)(=O)N(CCO)c2ccccc2CN(C)C/C=C/c2ccc(Cl)cc2)cc1.O=P(O)(O)O` next.
Result: 91%

---

Entries annotated with measured Population Normal (%)
Test system: Fibroblast
Experiment: Multiplex assay against human fibroblast
Assay type: toxicity, cell-based
Conditions: 24 h, 1 µM, compound concentration 1 uM, replicate 2
State the answer as a number, implicitly in %.

| compound | Population Normal (%) |
| --- | --- |
| O=C(Nc1ccc(-n2nc(-c3cccnc3)cc2C(F)(F)F)cn1)c1ccc(-c2ccccc2)c(F)c1 | 92 |
| CN(C)C(=O)C(CCN1CCC(O)(c2ccc(Cl)cc2)CC1)(c1ccccc1)c1ccccc1.Cl [LOPERAMIDE HYDROCHLORIDE] | 95 |
| CN1CCN(C(=O)C(C)(C)c2ccc(C(=O)Nc3cn4cc(-c5cc(C(C)(C)C)cc(C(C)(C)C)c5)ccc4n3)cc2)CC1 | 71 |
| CCOc1cc2ncc(C#N)c(Nc3ccc(OCc4ccccn4)c(Cl)c3)c2cc1NC(=O)/C=C/CN(C)C | 94 |
| CCOC(=O)c1c(C)[nH]c2ccc3c(c12)CN1CCc2cc(OC)ccc2C1O3 (stereo not drawn) | 94 |
| CN1C2CCC1CC(OC(c1ccc(F)cc1)c1ccc(F)cc1)C2.Cl (stereo not drawn) | 97 |
| NC(=O)c1cccc(-c2cc(Nc3ccc(OC(F)(F)F)cc3)ncn2)c1 | 73 |

Ask: Enter reported Population Normal (%) observed with Fibroblast for `Cc1cn(-c2cc(NC(=O)c3ccc(C)c(Nc4nccc(-c5cccnc5)n4)c3)cc(C(F)(F)F)c2)cn1`
Result: 94

---

Population Normal (%) by entry:
Tested on: HEK-293T
Assay: Multiplex assay against HEK293T
Assay type: toxicity, cell-based
Conditions: human, 12 h, 1 µM, compound concentration 1 uM, replicate 1
Report the figure in % without appending any unit label.

# count of solved cases: 5
| structureSmiles | tgt | units | Population Normal (%) |
| --- | --- | --- | --- |
| COc1cc(N2CCN(C)CC2)ccc1Nc1ncc2c(n1)N(C)c1ccccc1C(=O)N2C | HEK-293T | % | 93 |
| CN[C@@H]1C[C@H]2O[C@@](C)([C@@H]1OC)n1c3ccccc3c3c4c(c5c6ccccc6n2c5c31)C(=O)NC4 | HEK-293T | % | 84 |
| CCCn1c(=O)c2[nH]c(-c3cnn(Cc4cccc(C(F)(F)F)c4)c3)nc2n(CC)c1=O | HEK-293T | % | 81 |
| CNC(=O)c1ccc(Nc2nc(OC3CCCC3)c3c(-c4ccc5nc(C)oc5c4)c[nH]c3n2)c(OC)c1 | HEK-293T | % | 77 |
| Cn1nc(C(F)(F)F)cc1-c1cnc(N2CCc3cc(S(=O)(=O)Nc4c(F)cc(Cl)cc4F)cc(N4CCCC4=O)c32)nc1 | HEK-293T | % | 89 |

Ask: Reported Population Normal (%), compound `O=C1NC(=O)C(c2cnc3ccccn23)=C1c1cn2c3c(cc(F)cc13)CN(C(=O)N1CCCCC1)CC2` : ____
Result: 83

Ask: Same read-out for `Cl.Oc1ccc2c3c1O[C@H]1c4[nH]c5c(c4C[C@@]4(O)[C@@H](C2)N(CC2CC2)CC[C@]314)C[C@@]1(O)[C@H]2Cc3ccc(O)c4c3[C@@]1(CCN2CC1CC1)[C@H]5O4` ?
Result: 86

---

Tested on: HEK-293T
Experiment: Incucyte cell viability with HEK293T; note: filed as whole numbers so only -1 and 0 and 1 occur
Format: toxicity, cell-based
Settings: human, 24 h, 10 µM, compound concentration 10 uM, replicate number 2, timepoint 24 hours
attributeMeasured: Growth Rate

Solved cases (3 shown):
| structureSmiles | result |
| --- | --- |
| COc1cc(-c2cn(C)c(=O)c3cnccc23)c(OC)cc1CN(C)C | 1 |
| Cl.Oc1ccc2c3c1O[C@H]1c4[nH]c5c(c4C[C@@]4(O)[C@@H](C2)N(CC2CC2)CC[C@]314)C[C@@]1(O)[C@H]2Cc3ccc(O)c4c3[C@@]1(CCN2CC1CC1)[C@H]5O4 | 0 |
| Cc1ccc(-c2cnc([C@@]3(O)CC[C@H](C(=O)O)C(C)(C)C3)s2)cc1Nc1cccc(C(F)(F)F)n1 | 0 |

Ask: // fetch HEK-293T Growth Rate for `CNC[C@H](O)c1cccc(O)c1`
Result: 0

Ask: Can you check `O=C(NS(=O)(=O)c1ccc(NCC2CCOCC2)c([N+](=O)[O-])c1)c1ccc(N2CCN(Cc3ccc(C(F)(F)F)cc3-c3ccc(Cl)cc3)CC2)cc1Oc1cnc2[nH]ccc2c1` next?
Result: 1

Ask: Moving on to `N[C@@H](Cc1cc(I)c(Oc2ccc(O)c(I)c2)c(I)c1)C(=O)O`
Result: 0

Ask: Same for `c1ccc(Nc2nc3c(s2)CCCc2[nH]ncc2-3)nc1`
Result: 1

Ask: Another: `NS(=O)(=O)c1c(Cl)ccc(NC(=O)Nc2cccc(Cl)c2Cl)c1O`
Result: 1

Ask: Would you mind doing `CCCCN(CCCC)C(=O)CN1C[C@H](c2cc(OC)c3c(c2)OCO3)[C@@H](C(=O)O)[C@@H]1CC(C)(C)CCC.Cc1ccc(S(=O)(=O)O)cc1` as well?
Result: 0

Ask: Also `C=CC(=O)Nc1ccc2[nH]c(=O)n(C3CCN(C(=O)c4ccc(-c5nc6cc[nH]c(=O)c6cc5-c5ccccc5)cc4)CC3)c2c1` ?
Result: 1

---

Listed next: entries and their corresponding Population Hoechst High Intensity Objects (%).
Tested on: HEK-293T
Experiment: Multiplex assay against HEK293T
Type: toxicity, cell-based
Details: human, 12 h, 1 µM, compound concentration 1 uM, replicate 2
Quick note: give the figure in %, leave out the unit.

| molecule | tgt | recordedNumber |
| --- | --- | --- |
| CCN1CCN(Cc2ccc(Nc3ncc(F)c(-c4cc(F)c5nc(C)n(C(C)C)c5c4)n3)nc2)CC1.CS(=O)(=O)O | HEK-293T | 4 |

Ask: Requested field: Population Hoechst High Intensity Objects (%). Item: `COc1ccc(S(=O)(=O)N(CCO)c2ccccc2CN(C)C/C=C/c2ccc(Cl)cc2)cc1.O=P(O)(O)O`
Result: 7

Ask: One more molecule: `Cc1cc(C)c(S(=O)(=O)N(Cc2ccc(-c3cccc(S(C)(=O)=O)c3)cc2)Cc2ccc(C(F)(F)F)o2)c(C)c1`
Result: 4

---

System: Fibroblast
Experiment: Multiplex assay against human fibroblast
Assay type: toxicity, cell-based
Conditions: 12 h, 1 µM, compound concentration 1 uM, replicate 2
attributeMeasured: Population Pyknosed Nuclei (%)
The answer is to be given in %; state only the numeric part.

Ask: Quick one: Population Pyknosed Nuclei (%) of `Cl.O=c1c2cccn2c2ccccc2n1CCCN1CCC(c2ccc(Cl)cc2)CC1` ?
Result: 9

Ask: Queued: `COC(=N)c1nc2ccc3ncnc(Nc4ccc(OC)cc4F)c3c2s1`
Result: 15

Ask: Thanks! And CCOC(=O)c1c(C)[nH]c2ccc3c(c12)CN1CCc2cc(OC)ccc2C1O3 (stereo unspecified) ?
Result: 14

---

System: Fibroblast
Assay: Multiplex assay against human fibroblast
Assay type: toxicity, cell-based
Conditions: 12 h, 10 µM, compound concentration 10 uM, replicate 2
attributeMeasured: Population Normal (%)
Write the value in % as a bare number.

Some compounds with known Population Normal (%) results, for comparison:
| compound | Population Normal (%) |
| --- | --- |
| CCOc1cc2ncc(C#N)c(Nc3ccc(OCc4ccccn4)c(Cl)c3)c2cc1NC(=O)/C=C/CN(C)C | 72 |
| COc1ccc(-c2ccc3c(N4CCOCC4)nc(N4C[C@@H](C)O[C@@H](C)C4)nc3n2)cc1CO | 33 |
| O=C(Cc1ccc(-c2ccc(OCCN3CCOCC3)cc2)cn1)NCc1ccccc1 | 89 |
| CN1C2CCC1CC(OC(c1ccc(F)cc1)c1ccc(F)cc1)C2.Cl (stereo not drawn) | 93 |
| COc1cc2ncnc(Nc3ccc(F)c(Cl)c3)c2cc1NC(=O)/C=C/CN1CCCCC1 [DACOMITINIB ANHYDROUS] | 64 |
| O=C1N/C(=N/c2ccccc2F)S/C1=C\c1ccc(C(=O)O)cc1 | 91 |

Ask: Recorded Population Normal (%) for `Cc1ccc2nc(NCCN)c3ncc(C)n3c2c1.O=C(O)C(F)(F)F.O=C(O)C(F)(F)F` , please?
Result: 63

Ask: // next record `COc1ccc(S(=O)(=O)N(CCO)c2ccccc2CN(C)C/C=C/c2ccc(Cl)cc2)cc1.O=P(O)(O)O`
Result: 55
